System: MS2 coat protein
protocol description: apparent KD of MS2 coat protein; higher = weaker reporter binding
assay setup: Eterna round: R107; input ligand: theophylline 2 mM
Overview of recorded apparent KD of MS2 coat protein for various sequences
quantity kind: apparent KD of MS2 coat protein (nM)

1. UGUAACAUGAGGAUCACCCAUGUGAGUGAUACCAGACUAGUGUUAGUCCCUUGGCAGCACGCUGGACGAAUGUGUAGUCUAUGCG [Same State - Theophylline A (Freestyle 19)] : 58.3
2. CACGAAAGAUCGGCCGCCACUAUUUGAUGUGUUCUUUCACAUGAGGAUCACCCAUGUUCUUAUUUUAGGACCGGGAUUGAGCGUG [ETB #2] : 145
3. GGCUAUACUACGGCCGCCACUGAACAUGAGGAUCACCCAUGUAAUGUUCAGAUUUUUUUUUUUUACAGGACCGGGUAGAAUUGCC [Tryptophan B 3] : 299
4. CAAUGCAGGUCGGCCGCCACUACACACAUGAGGAUCACCCAUGUAGUUACUGGGUGAAGUGGCAGUAGGACCGGGACCUGCAUAA [Brourdmod02] : 568
5. GGUUACUCUACGGCCGCCACUGUAAAGUAAAUAUUAAUGUACAUGACAUGAGGAUCACCCAUGUACAGGACCGGGUAGUGUAACC [Tryptophan B 14] : 46.5
6. CACGAAAGAUCGGCCGCCACUAUUUGAUGUGUUCUUUCACAUGAGGAUCACCCAUGUUCUUUCUUUAGGACCGGGAUUGAGCGUG [ETB #1] : 162
